Reference source for all entries: patent US20250179047A1

test system: BCL2 G101V; assay: TR-FRET competitive binding assay, BCL2 G101V; design: species or system human; details: ratio Ki BCL2 G101V / Ki BCL2 WT
property: TR_FRET EKI G101V/WT selectivty ratio

* Cc1c(N(C(=O)c2cc(-c3cc4c(cc3C(=O)N3Cc5ccccc5C[C@H]3C)CN(C(=O)C(F)(F)c3ccccc3)CC4)n(C)c2C)c2ccc(O)cc2)cc(C#N)n1C | 14.0
* Cc1c(N(C(=O)c2cc(-c3cc4c(cc3C(=O)N3Cc5ccccc5C[C@H]3C)CN(C(=O)Cc3ccc(OCCN(C)C5CC5)cc3)CC4)n3c2CCCC3)c2ccc(O)cc2)cc(C#N)n1C | 2.6
* Cc1c(C(=O)N(c2ccc(O)cc2)c2cc(C#N)n(C(C)C)c2C)cc(-c2cc3c(cc2C(=O)N2Cc4ccccc4C[C@H]2C)CN(C(=O)Cc2ccc(OCCN4CCOCC4)cc2)CC3)n1C | 4.5
* Cc1c(N(C(=O)c2cc(-c3cc4c(cc3C(=O)N3Cc5ccccc5C[C@H]3CN3CCCCC3)CN(C(=O)Cc3ccc(OCCN(C)CCF)cc3F)CC4)n(C)c2C)c2ccc(O)cc2)cc(C#N)n1C | 5.8
* Cc1c(N(C(=O)c2cc(-c3cc4c(cc3C(=O)N3Cc5ccccc5C[C@H]3C)CN(C(=O)Cc3ccc(OCCN5CC(F)C5)cc3)CC4)n(C)c2C)c2ccc(O)cc2)cc(C#N)n1C | 2.3
* Cc1c(N(C(=O)c2cc(-c3cc4c(cc3C(=O)N3Cc5ccccc5C[C@H]3C)CN(C(=O)Cc3ccc(CCN5CCOCC5)cc3)CC4)n(C)c2C)c2ccc(O)cc2)cc(C#N)n1C | 4.8
* Cc1c(N(C(=O)c2cc(-c3cc4c(cc3C(=O)N3Cc5ccccc5C[C@H]3C)CN(C(=O)c3cnc(-c5ccccc5)s3)CC4)n(C)c2C)c2ccc(O)cc2)cc(C#N)n1C | 6.2
* Cc1c(N(C(=O)c2cc(-c3cc4c(cc3C(=O)N3Cc5ccccc5C[C@H]3CN(C(C)C)C(C)C)CN(C(=O)Cc3ccc(OCCN5CCOCC5)cc3F)CC4)n(C)c2C)c2ccc(O)cc2)cc(C#N)n1C | 6.9

(I) Cc1c(C(=O)N(c2ccc(O)cc2)c2cnn3c2CCCC3)cc(-c2cc3c(cc2C(=O)N2Cc4ccccc4C[C@H]2C)CN(C(=O)Cc2ccc(OCCN4CCOCC4)cc2)CC3)n1C
(II) Cc1c(N(C(=O)c2cc(-c3cc4c(cc3C(=O)N3Cc5ccccc5C[C@H]3C)CN(C(=O)Cc3ccc(OCCN5CCN(C6CC6)CC5)cc3)CC4)n(C)c2C)c2ccc(O)cc2)cc(C#N)n1C
Enquiry: Of I and II , which carries the smaller reported TR_FRET EKI G101V/WT selectivty ratio figure? Refer to your chosen entry by its label in the reply.
Return: II
